What Multiples (YK-107) was measured for each of the following?
System: 293T cells
Assay: Fluorescent detection of Fluc-mRNA (cell transfection efficiency of LNP formulations)
Format: cell-based
Conditions: RLU of YK-107 / RLU of named substance
The response must contain the number and no unit.

Return reported Multiples (YK-107). Input molecule: CCCCCCCCCCOC(=O)CCCN(CCCCCC(=O)OCCC(CCCCCC)CCCCCC)C[C@H](C)O [YK-117]
32.14

Return reported Multiples (YK-107). Input molecule: CCCCCCCCCCCOC(=O)CCCN(CCO)CCCCCCC(=O)OCCC(CCCCCC)CCCCCC [YK-108]
0.91

Return reported Multiples (YK-107). Input molecule: CCCCCCCCCCOC(=O)CCCN(CCCCCC(=O)OCCC(CCCCCC)CCCCCC)CC(O)CO (stereo not drawn) [YK-114]
15.76

Return reported Multiples (YK-107). Input molecule: CCCCCCCCCCOC(=O)CCCN(CCCO)CCCCCC(=O)OCC(CCCCCCCC)CCCCCCCC [YK-107]
1.00

Return reported Multiples (YK-107). Input molecule: CCCCCCCCCCOC(=O)CCCN(CCO)CCCCCC(=O)OCC(CCCCCCCC)CCCCCCCC [YK-009, reference compound]
4.41

Return reported Multiples (YK-107). Input molecule: CCCCCCCCCCOC(=O)CCCN(CCCCCC(=O)OCCC(CCCCCC)CCCCCC)C[C@@H](O)CO [YK-115]
15.66

Return reported Multiples (YK-107). Input molecule: CCCCCCCCCCOC(=O)CCCN(CCCCCC(=O)OCCC(CCCCCC)CCCCCC)CCC(C)O (stereo not drawn) [YK-118]
1049.33

Return reported Multiples (YK-107). Input molecule: CCCCCCCCCCOC(=O)CCCN(CCCCCC(=O)OCCC(CCCCCC)CCCCCC)CCOCCOCCO [YK-121]
52.29

Return reported Multiples (YK-107). Input molecule: CCCCCCCCCCOC(=O)CCCCCN(CCO)CCCCCC(=O)OCCC(CCCCCC)CCCCCC [YK-103]
9.67

Return reported Multiples (YK-107). Input molecule: CCCCCCCCCCOC(=O)CCCN(CCCCCC(=O)OCC(CCCCCCCC)CCCCCCCC)CCOCCOCCO [YK-122]
15.76

Return reported Multiples (YK-107). Input molecule: CCCCCCCCCCOC(=O)CCCN(CCO)CCCCC(=O)OCCC(CCCCCC)CCCCCC [YK-104]
13.20

Return reported Multiples (YK-107). Input molecule: CCCCCCCCCCCCC(O)CN(C)CCCCCC(=O)OCC(CCCCCC)CCCCCCCC (stereo not drawn) [HHMA, reference compound]
10.92

Return reported Multiples (YK-107). Input molecule: CCCCCCCCC(CCCCCC)C(=O)OCCCCCCN(CCCCO)CCCCCCOC(=O)C(CCCCCC)CCCCCCCC (stereo not drawn) [ALC-0315, reference compound]
10.87

Return reported Multiples (YK-107). Input molecule: CCCCCCCCCCOC(=O)CCCN(CCCCCC(=O)OCCC(CCCCCC)CCCCCC)C1CCCC1O (stereo not drawn) [YK-120]
15.93

Return reported Multiples (YK-107). Input molecule: CCCCCCCCCCOC(=O)CCCN(CCCCCC(=O)OCC(CCCCCCCC)CCCCCCCC)CCOC(=O)CCCN(C)C [YK-126]
101.65

Return reported Multiples (YK-107). Input molecule: CCCCCCCCCCOC(=O)CCCN(CCO)CCCCCCOC(=O)CC(CCCCCC)CCCCCC [YK-105]
14.03

Return reported Multiples (YK-107). Input molecule: CCCCCCCCC(CCCCCCCC)OC(=O)CCCCCCCN(CCO)CCCCCCCC(=O)OCCC(CCCCCC)CCCCCC [Compound 21, reference compound]
16.10

Return reported Multiples (YK-107). Input molecule: CCCCCCCCCCOC(=O)CCCN(CCCCCC(=O)OCCC(CCCCCC)CCCCCC)CCOC(=O)CCCN(C)C [YK-125]
131.67

====

What average radiation intensity of YK-101, times that of named substance was measured for each of the following?
Test system: BALB/C mice
Assay: In vivo imaging of Fluc-mRNA expression in mice delivered by LNP formulations
Conditions: 24 h
Quick reminder: number only, in times, skip the unit.

Print BALB/C mice average radiation intensity of YK-101, times that of named substance for CCCCCCCCCCOC(=O)CCCN(CCCCCC(=O)OCCC(CCCCCC)CCCCCC)C1CCCC1O (stereo not drawn) [YK-120] .
11.1

Print BALB/C mice average radiation intensity of YK-101, times that of named substance for CCCCCCCCCCOC(=O)CCCN(CCCO)CCCCCC(=O)OCCC(CCCCCC)CCCCCC [YK-102] .
10.5

Print BALB/C mice average radiation intensity of YK-101, times that of named substance for CCCCCCCCCC(=O)OCCCCN(CCO)CCCCCC(=O)OCCC(CCCCCC)CCCCCC [YK-109] .
11.2

Print BALB/C mice average radiation intensity of YK-101, times that of named substance for CCCCCCCCCC(=O)OCCCCN(CCO)CCCCCC(=O)OCC(CCCCCCCC)CCCCCCCC [YK-106] .
10.0

Print BALB/C mice average radiation intensity of YK-101, times that of named substance for CCCCCCCCCCCOC(=O)CCCCCN(CCO)CCCCCCCC(=O)OC(CCCCCCCC)CCCCCCCC [SM-102, reference compound] .
9.0

Print BALB/C mice average radiation intensity of YK-101, times that of named substance for CCCCCCCCCCOC(=O)CCCN(CCCCCC(=O)OCC(CCCCCCCC)CCCCCCCC)CCOC(=O)CCCN(C)C [YK-126] .
50.4

====

What cell survival rate lower than that of YK-108 was measured for each of the following?
System: 293T cells
Assay: Cell survival rate determination (CCK-8)
Format: cell-based
Conditions: cell survival rate of YK-108 minus that of named substance
Quick reminder: number only, in %, skip the unit.

Print 293T cells cell survival rate lower than that of YK-108 for CCCCCCCCCCOC(=O)CCCN(CCCCCC(=O)OCC(CCCCCCCC)CCCCCCCC)CCOCCO .
12.30

Print 293T cells cell survival rate lower than that of YK-108 for CCCCCCCCCCOC(=O)CCCN(CCCCCC(=O)OCCC(CCCCCC)CCCCCC)C[C@H](C)O .
31.93

Print 293T cells cell survival rate lower than that of YK-108 for CCCCCCCCCCOC(=O)CCCN(CCO)CCCCCC(=O)OCC(CCCCCCCC)CCCCCCCC [YK-009, reference compound] .
16.29

Print 293T cells cell survival rate lower than that of YK-108 for CCCCCCCCC(CCCCCC)C(=O)OCCCCCCN(CCCCO)CCCCCCOC(=O)C(CCCCCC)CCCCCCCC (stereo not drawn) [ALC-0315, reference compound] .
38.84

Print 293T cells cell survival rate lower than that of YK-108 for CCCCCCCCCCOC(=O)CCCN(CCCCCC(=O)OCCC(CCCCCC)CCCCCC)CCC(C)(C)O .
9.59

Print 293T cells cell survival rate lower than that of YK-108 for CCCCCCCCCCOC(=O)CCCN(CCCO)CCCCCC(=O)OCCC(CCCCCC)CCCCCC .
38.04

Print 293T cells cell survival rate lower than that of YK-108 for CCCCCCCCCCOC(=O)CCCN(CCCCCC(=O)OCCC(CCCCCC)CCCCCC)CCOCCOCCO .
16.75

Print 293T cells cell survival rate lower than that of YK-108 for CCCCCCCCCCCCC(O)CN(C)CCCCCC(=O)OCC(CCCCCC)CCCCCCCC (stereo not drawn) [HHMA, reference compound] .
22.09

Print 293T cells cell survival rate lower than that of YK-108 for CCCCCCCCCCOC(=O)CCCN(CCO)CCCCC(=O)OCCC(CCCCCC)CCCCCC .
16.31

====

Tested on: 293T cells
Experiment: Cell survival rate determination (CCK-8)
Format: cell-based
Details: LNP formulation containing 1.5 μg Fluc-mRNA, 24 hours, CCK-8, absorbance at 450 nm
Threshold check on Cell survival rate (%): strictly below 60% is true (1); on or above 60% is false (0).

A record lists CCCCCCCCCCOC(=O)CCCN(CCO)CCCCCCOC(=O)CC(CCCCCC)CCCCCC . Is its Cell survival rate (%) below 60%?
false (0)

A record lists CCCCCCCCCCOC(=O)CCCN(CCO)CCCCCC(=O)OCC(CCCCCCCC)CCCCCCCC [YK-009, reference compound] . Is its Cell survival rate (%) below 60%?
false (0)

A record lists CCCCCCCCCCOC(=O)CCCN(CCCCCC(=O)OCCC(CCCCCC)CCCCCC)CCC(C)O (centres unmarked) . Is its Cell survival rate (%) below 60%?
false (0)

A record lists CCCCCCCCCCOC(=O)CCCN(CCCO)CCCCCC(=O)OCCC(CCCCCC)CCCCCC . Is its Cell survival rate (%) below 60%?
true (1)

A record lists CCCCCCCCCCOC(=O)CCCCCN(CCO)CCCCCC(=O)OCCC(CCCCCC)CCCCCC . Is its Cell survival rate (%) below 60%?
true (1)

A record lists CCCCCCC(CCCCCC)CCOC(=O)CCCCCCCN(CCO)CCCCCCCC(=O)OCCC(CCCCCC)CCCCCC [Compound 23, reference compound] . Is its Cell survival rate (%) below 60%?
false (0)

A record lists CCCCCCCCCCOC(=O)CCCN(CCCCCC(=O)OCCC(CCCCCC)CCCCCC)CC(O)CO (centres unmarked) . Is its Cell survival rate (%) below 60%?
false (0)
